biological target: MAST2, Q6P0Q8; assay: holdup assay; parameters: key: below the threshold = too weak to quantify, mostly under pKd 3.1 to 4; details: plain residues with an end cap or a label only (N-terminal biotin on a linker: ado-ado)
Sequence (Q6P0Q8 1099-1202): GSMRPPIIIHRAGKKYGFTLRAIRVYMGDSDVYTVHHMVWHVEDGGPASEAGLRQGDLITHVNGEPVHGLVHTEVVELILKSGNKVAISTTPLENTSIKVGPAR
property name: pKd
Give only the figure.

# count of solved cases: 5
PPGKHLVTEV [KCNA7, Q96RP8] :: 5.21
STKRKLASAV [NCF1, P14598] :: 4.54
DRIQSCLSDA [SBF1, O95248] :: 4.35
SLNANEVEWF [RNF130, Q86XS8] :: 4.32
KSRVAFFEEL [NF2, P35240;P35240-1] :: 4.97

Which pKd is reported for this binder? REEPDHSTEV [CCRL2, O00421]
5.3

Which pKd is reported for this binder? TGLWKHETTV [ADGRA3, Q8IWK6]
5.47
